- Test system: DAF-12 nuclear receptor (Haemonchus contortus)
- method: hcDAF-12 driven luciferase reporter activation – cell-based, luminescence, HEK293, lit1-tk-luc reporter, primary screen (AID 652067);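 further: 100% = response to 3 µM Δ7-dafachronic acid high control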
- test conditions: HEK293 hcDAF-12 lit1-tk-luc reporter, at 6.8 µM, stronger effect = higher value, 0% DMSO, 100% Δ7-dafachronic acid
About 5,400 (1.5%) of roughly 370,000 compounds were called active. The entries come from a sample that favours actives as a whole.
Form field: activation (one value per entry).
The response must be a number in % with no trailing unit.

Worked cases, answers included:
                                   compound  measure_name  readout_value
0     CC(C)N(Cc1ccccc1)C(=O)COC(=O)c1cnccn1    activation          -0.24
1  Cc1ccc(NC(=O)N2c3ccccc3SC2c2ccco2)c(C)c1 (centres undefined)    activation           0.47
2  Cc1ccc(-c2nc(C3CCCN(S(=O)(=O)c4ccc(Br)s4)C3)no2)cc1 (centres undefined)    activation          -1.74
3  O=C(NCc1ccccc1)[C@H]1CCCN1C(=O)[C@H]1CCCN1C(=O)N1CCOCC1    activation           0.81
4  COc1cccc(/C=C2\CC3(OC(C)=O)CCCN2C3)c1 (centres undefined)    activation          -1.14

Req: Which activation value belongs to CCc1ccc(-c2cc(C(=O)NN3CCN(C)CC3)c3ccccc3n2)cc1 ?
Resp: 6.67

Req: So what does the record say about activation for O=C(NCc1ccco1)/C(=C/c1ccco1)NC(=O)c1ccccc1 ?
Resp: -0.96

Req: Look up activation for this compound: O=C(N1CCOCC1)N(Cc1ccccc1)c1ccccn1
Resp: -1.16

Req: Recorded activation of CC1CC(C)CN(CCC(=O)Nc2ccc3c(c2)CCC3)C1 (centres undefined) , please.
Resp: 0.05
